log10(IC50) values by entry
Molecular target: Recombinant human cathepsin S (CatS) (Homo sapiens)
Sequence (P25774 115-331): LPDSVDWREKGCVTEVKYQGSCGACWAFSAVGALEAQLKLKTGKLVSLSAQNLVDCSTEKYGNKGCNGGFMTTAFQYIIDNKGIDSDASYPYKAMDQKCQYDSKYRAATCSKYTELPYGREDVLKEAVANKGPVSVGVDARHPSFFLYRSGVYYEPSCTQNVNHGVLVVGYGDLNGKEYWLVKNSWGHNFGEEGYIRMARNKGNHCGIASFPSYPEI
Assay: Recombinant human cathepsin S (CatS) inhibition assay, fluorogenic substrate Z-Valine-Valine-Arginine-AMC
Details: CatS IC50
Field: value | Transform: log10 | Quantity: IC50 | Unit: nM

Worked cases, answers included:
[[record]]
compound = "CS(=O)(=O)N1CCc2c(c(-c3ccc(Cl)c(C#Cc4ccc5c(c4)CNCCC5)c3)nn2CCCN2CCOCC2)C1 [Example 489]"
endpoint_result = 2.68

[[record]]
compound = "CS(=O)(=O)N1CCc2c(c(-c3ccc(Cl)c(CCc4cccc(CNCc5ccccc5)c4)c3)nn2CCCN2CCOCC2)C1 [Example 535]"
endpoint_result = 2.81

[[record]]
compound = "CS(=O)(=O)N1CCc2c(c(-c3ccc(Cl)c(CCCN4CCC(F)(F)CC4)c3)nn2CCCN2CCC(N3CCCC3=O)CC2)C1 [Example 104]"
endpoint_result = 2.97

[[record]]
compound = "C[C@H]1COCCN1CCCn1nc(-c2ccc(Cl)c(C#Cc3ccc4c(c3)CCN(C)C4)c2)c2c1CCN(S(C)(=O)=O)C2 [Example 519]"
endpoint_result = 2.60

[[record]]
compound = "O=C(c1ccccn1)N1CCc2c(c(-c3ccc(Cl)c(C#Cc4ccc(Cl)cc4)c3)nn2CCCN2CCOCC2)C1 [Example 137]"
endpoint_result = 2.15


Would you kindly look at the next entry?
Requested read-out: log10(IC50). Entry: CS(=O)(=O)NC1CCN(CCCn2nc(-c3ccc(Cl)c(C#Cc4ccc(CNCc5ccc(Cl)cc5)cc4)c3)c3c2CCN(S(C)(=O)=O)C3)CC1 [Example 359]
1.90

====

Target: Recombinant human cathepsin S (CatS) (Homo sapiens)
Experiment: Recombinant human cathepsin S (CatS) inhibition assay, fluorogenic substrate Z-Valine-Valine-Arginine-AMC;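 also: Baculovirus-expressed CatS in pH 5.0 sodium acetate buffer with DTT and NaCl, fluorescence read each minute over 20 min, inhibition derived from rate slope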
Details: CatS IC50
pIC50 values by entry
Answer as the number alone; pIC50 is minus log10 of concentration in mol/L.

Worked cases, answers included:
[[record]]
compound = "COC(=O)[C@@H]1Cc2ccc(C#Cc3cc(-c4nn(CCCN5CCOCC5)c5c4CN(S(C)(=O)=O)CC5)ccc3Cl)cc2CN1 [Example 198]"
tgt = "Recombinant human cathepsin S (CatS) (Homo sapiens)"
endpoint_result = 7.15

[[record]]
compound = "CS(=O)(=O)N1CCc2c(c(-c3ccc(Cl)c(C#Cc4cncc(CNCc5ccc(Cl)cc5)c4)c3)nn2CCCN2CCOCC2)C1 [Example 428]"
tgt = "Recombinant human cathepsin S (CatS) (Homo sapiens)"
endpoint_result = 5.43


Which measured pIC50 belongs to COc1ccccc1C#Cc1cc(-c2nn(CCCN3CCOCC3)c3c2CN(S(C)(=O)=O)CC3)ccc1Cl [Example 24] , tested on Recombinant human cathepsin S (CatS) (Homo sapiens)?
6.25

Which measured pIC50 belongs to CS(=O)(=O)N1CCc2c(c(-c3ccc(Cl)c(C#Cc4ccc(CNCc5ccc(Cl)cc5)cc4)c3)nn2CCCN2CCN(c3ccncc3)CC2)C1 [Example 416] , tested on Recombinant human cathepsin S (CatS) (Homo sapiens)?
7.15

Which measured pIC50 belongs to NC(=O)N1CCc2c(c(-c3ccc(Cl)c(C#Cc4ccc(CNCc5ccc(Cl)cc5)cc4)c3)nn2CCCN2CCCC2)C1 [Example 453] , tested on Recombinant human cathepsin S (CatS) (Homo sapiens)?
6.85

Which measured pIC50 belongs to C[C@H]1COC[C@H](C)N1CCCn1nc(-c2ccc(Cl)c(C#Cc3ccc(CNCc4ccc(Cl)cc4)cc3)c2)c2c1CCN(C(=O)C(N)=O)C2 [Example 157] , tested on Recombinant human cathepsin S (CatS) (Homo sapiens)?
7.40

The measurements presented in this section are drawn from patent US20080200454A1.
